Compiled from multiple publications: IC50 readings for Aldo-keto reductase family 1 member B1 (Rattus norvegicus, UniProt P07943).
ASSAY ENDPOINT: IC50 (µM)

Worked examples, 5 compounds total:
COc1cc2oc(-c3ccc(O)c(O)c3)c(OC)c(=O)c2c(OC)c1OC: 0.269
COc1cccc2c1c(NC(=O)CSCC(=O)O)nn2C: 77.6
Cc1ccc(Cn2/c(=N\NCC(=O)O)n(C(=O)C(=O)O)c3ccccc32)cc1: 45.9
O=C(O)CNC(=O)c1ccc(NC(=O)CCc2ccccc2)cc1: 45
COc1ccc(C(=O)c2cccn2-c2cnn(O)c2)cc1: 15.1

(A) O=Cc1ccc(CO)o1
(B) COc1c(O)cc(OC)c2c(=O)cc(-c3ccc(O)c(O)c3)oc12
(C) O=C(C1=Cc2ccccc2OC1)N1CCC[C@H]1c1ncc(-c2ccc(Cl)cc2)[nH]1
(D) COc1cc2nc(Nc3ccc(C(=O)O)cc3)[nH]c(=O)c2cc1OC
Q: Kindly order the items shown according to IC50, from the highest value down. Labels, ranked as asked.
Result: A, D, C, B

====

Compiled from multiple publications: IC50 readings for Aldo-keto reductase family 1 member B1 (Rattus norvegicus, UniProt P07943).
ASSAY ENDPOINT: IC50 (µM)

Worked examples, 7 compounds total:
O=C(O)c1cn(Cc2ccc(O)c(O)c2)c2ccccc2c1=O: 0.251
CONC(=O)c1cn(Cc2cc(O)cc(O)c2)c2ccccc2c1=O: 0.689
O=C(O)c1ccc(Nc2nc3ccccc3c(=O)[nH]2)cc1O: 57
O=C(O)CN(c1ccc(F)cc1)S(=O)(=O)c1ccccc1: 22
O=S(=O)(c1ccc(O)cc1)c1cc2ccccc2[nH]1: 37.3
CN(CC(=O)O)C(=O)c1ccccc1: 23
CC(C)c1cccc2c1OC(C(C)C)C(=S)N2CC(=O)O (stereo unspecified): 0.13

(1) O=C(O)Cn1c(=O)oc2c(/C=C/c3ccccc3)cccc21
(2) COc1c(O)c(O)c2c(=O)cc(-c3ccccc3)oc2c1OC
Q: Out of 1 and 2 , name the one with the higher IC50. State your choice using its label.
Result: 2

====

Compiled from multiple publications: IC50 readings for Aldo-keto reductase family 1 member B1 (Rattus norvegicus, UniProt P07943).
ASSAY ENDPOINT: IC50 (µM)

COc1c(OC)c(O)c2c(=O)cc(-c3ccc(O)c(O)c3)oc2c1OC: 0.0389

(I) COc1cccc2c1OCC(C(=O)NCc1ncc(-c3ccc(Cl)cc3)[nH]1)=C2
(II) Nc1ccc(C(=O)N(CC(=O)O)c2ccccc2)cc1
Q: Input pair: I , II . Output: entry with lower IC50. State your choice using its label.
Result: I

====

pIC50: −log10 of the molar value.
Compiled from multiple publications: pIC50 readings for UniProt P07943.
ASSAY ENDPOINT: pIC50

(I) Nc1ccc(S(=O)(=O)Nc2ccccc2C(=O)O)cc1
(II) Cn1c2ccccc2n2c(=O)c(CC(=O)O)nnc12
(III) COc1cc([C@H]2O[C@@H](c3ccc(O)c(OC)c3)[C@H](C)[C@@H]2C)ccc1O
(IV) Cc1cnc2c(c1)S(=O)(=O)N(Cc1ccc(C(F)(F)F)cc1)CN2CC(=O)O
Q: Order the records by pIC50, with each subsequent value no larger than the one before. Labels, ranked as asked.
Result: IV, I, II, III

(a) CC(CCC(=O)O)N1Cc2c(cc3c(c2O)CC([C@@H](C)C(=O)O)O3)C1=O (some centres undefined)
(b) O=C(O)c1ccccc1NS(=O)(=O)c1ccc2ccccc2c1
(c) CC(=O)c1c(O)cc(O)cc1O[C@@H]1OC(COC(=O)c2cc(O)c(O)c(O)c2)[C@H](O)[C@H](O)[C@@H]1O (some centres undefined)
(d) COc1ccc2nc(CCc3ccc(O)c(OC)c3)c(=O)n(CC(=O)O)c2c1
(e) O=C(O)CC1CN(Cc2cc(F)c(F)cc2F)S(=O)(=O)c2ccccc21 (racemic)
Q: Kindly order the items shown according to pIC50, from the highest value down. Labels, ranked as asked.
Result: e, d, b, a, c
(e: 6.47, d: 6.07, b: 5.24, a: 4.92, c: 4.54)

(A) COc1ccc(CN2CN(CC(=O)O)c3ccc(Br)cc3S2(=O)=O)cc1
(B) O=C(O)Cn1c(=O)c(Sc2ccc(Br)cc2)nc2ccc(F)cc21
(C) O=C(c1ccccc1)c1cc(C(=O)C(F)(F)F)n(-c2ccc(O)c(F)c2)c1
(D) O=C(O)Cn1c(=O)c(Sc2ccc(Br)cc2)nc2cc(Br)ccc21
(E) C[C@H]1C(=O)[C@H](O)C[C@@H]2[C@]1(C)CC[C@H]1[C@@]2(C)CC[C@@]2(C)[C@@H]3C[C@](C)(C(=O)O)CC[C@]3(C)CC[C@]12C
Q: Please list these in order of increasing pIC50. Thank you! Labels, ranked as asked.
Result: E, A, C, D, B
